Each record here notes measured apparent KD of MS2 coat protein.
- System: MS2 coat protein
- assay remarks: apparent KD of MS2 coat protein, switch OFF state (with FMN for OFF switches, without FMN for ON switches); designed switch direction (-1 OFF switch, 1 ON switch): -1; higher = weaker reporter binding
- reported conditions: FMN input: 0 or 200 uM; Eterna round: R93 (includes R88 designs)
The response must be a number in nM with no trailing unit.

Previously resolved entries follow.
>>> experimental_result("AAACCACAUGAGGAUCACCCAUGUUAGGAUAUGAACGAAAAUAAAUAAAAAUAAAAGUUCAGAAGGGACAAAAA [66%, Wbt, 21]")
14.9
>>> experimental_result("AAAGGAGCAGGAUAUACAUGAGGAUCACCCAUGUAAAAAACAUAAUAAAAGAACUUAUGUAGAAGGGCUCCAAA [69%, Moding Meechl, 10]")
228
>>> experimental_result("AAUAAGUGAGGAUAUCGAAGACUGUCGAAAAGACAGUCGAACGAGAAGGCACAUGAGGAUCACCCAUGUGAGGG [Mat - Exaclusion 4 - Eli mod - D69]")
107
>>> experimental_result("AAAAAGUGAGGAUAUACAUGAAAAAAAAAAAAAAAAAAAAAACAUGAGGAUCACCCAUGUAGAAGGCGCAAAAA [GC GU GC sandwich]")
43.1
>>> experimental_result("CAGAGACAUGAGGAUCACCCAUGUUAGGAUAUGCGUGAAAGAAAAAAAAAGUUAAAAAGCAGAAGGAACAGAGG [JR_Exc001_Sub310]")
33.6
>>> experimental_result("AGUCAGAGAGGAUAUACAUGGGAAAAAAAAGUAAGAUCCCUACAUGAGGAUCACCCAUGUAGAAGGCUCUGACA [Ex2 Design 139: Sub-opt 3]")
20.2

Now for the sequence whose apparent KD of MS2 coat protein we want.
Task: # input sequence: GAAAAGUCAGGAUAUGUACAAAAUAAAAUAAAAAUAAAAGUACAGAAGGGACAUGAGGAUCACCCAUGUAAAAA [Mat - Exclusion 4 - Mayanna - D119] ; wanted: its apparent KD of MS2 coat protein
Output: 49.8
